test: activity coefficient (dimensionless); of the first substance listed, at infinite dilution; xn = mol fraction of the nth substance listed; details: 323.15 K; Liquid; Chromatography; x1 = 0
Can you tell me activity coefficient for the items I'm about to list?
// no unit string in output, number only

Notebook: CCCCCCC [heptane] + CCCCCCCC[N+](C)(CCCCCCCC)CCCCCCCC.O=S(=O)([N-]S(=O)(=O)C(F)(F)F)C(F)(F)F , activity coefficient read as 1.25

Summary for this compound, C#CCCCCCCC [1-nonyne] + CCCCCCCC[N+](C)(CCCCCCCC)CCCCCCCC.O=S(=O)([N-]S(=O)(=O)C(F)(F)F)C(F)(F)F : activity coefficient is 1.18

Briefly, activity coefficient measured for CCCCCCCCC [nonane] + CCCCCCCC[N+](C)(CCCCCCCC)CCCCCCCC.O=S(=O)([N-]S(=O)(=O)C(F)(F)F)C(F)(F)F : 2.21

# compound CCCCCCCCCC [decane] + CCCCCCCC[N+](C)(CCCCCCCC)CCCCCCCC.O=S(=O)([N-]S(=O)(=O)C(F)(F)F)C(F)(F)F ; its activity coefficient = 2.5

###

assay: activity coefficient (dimensionless); of the first substance listed, at infinite dilution; xn = mol fraction of the nth substance listed; details: 313.15 K; Liquid; Chromatography; x1 = 0
READOUT LABEL: activity coefficient

The compound C=CCCCC [hex-1-ene] + CCCCCCCC[N+](C)(CCCCCCCC)CCCCCCCC.O=S(=O)([N-]S(=O)(=O)C(F)(F)F)C(F)(F)F showed activity coefficient equal to 0.85

# activity coefficient of C1CCCCCCCC1 [cyclononane] + CCCCCCCC[N+](C)(CCCCCCCC)CCCCCCCC.O=S(=O)([N-]S(=O)(=O)C(F)(F)F)C(F)(F)F = 1.68

Documented activity coefficient of C#CCCCC [1-hexyne] + CCCCCCCC[N+](C)(CCCCCCCC)CCCCCCCC.O=S(=O)([N-]S(=O)(=O)C(F)(F)F)C(F)(F)F : 0.59

get_value(item= c1ccccc1 [benzene] + CCCCCCCC[N+](C)(CCCCCCCC)CCCCCCCC.O=S(=O)([N-]S(=O)(=O)C(F)(F)F)C(F)(F)F , readout=activity coefficient) returns 0.31

Measured activity coefficient, CCCCCCCCC [nonane] + CCCCCCCC[N+](C)(CCCCCCCC)CCCCCCCC.O=S(=O)([N-]S(=O)(=O)C(F)(F)F)C(F)(F)F : 2.39

Recorded activity coefficient (compound CCCCC [pentane] + CCCCCCCC[N+](C)(CCCCCCCC)CCCCCCCC.O=S(=O)([N-]S(=O)(=O)C(F)(F)F)C(F)(F)F ): 0.99

Per the record, Cc1ccccc1 [toluene] + CCCCCCCC[N+](C)(CCCCCCCC)CCCCCCCC.O=S(=O)([N-]S(=O)(=O)C(F)(F)F)C(F)(F)F has activity coefficient of 0.52

###

assay: activity coefficient (dimensionless); of the first substance listed, at infinite dilution; xn = mol fraction of the nth substance listed; conditions: 303.15 K; Liquid; Chromatography; x1 = 0
// map activity coefficient to label using low = under 0.7, intermediate = from 0.7 up to 1, high = 1 and over

# input Class (by measured activity coefficient) for CC(C)=O [acetone] + CCCCCCCC[N+](C)(CCCCCCCC)CCCCCCCC.O=S(=O)([N-]S(=O)(=O)C(F)(F)F)C(F)(F)F
# output low

# input GET /class?item= C=CCCCCCC [oct-1-ene] + CCCCCCCC[N+](C)(CCCCCCCC)CCCCCCCC.O=S(=O)([N-]S(=O)(=O)C(F)(F)F)C(F)(F)F
# output high

# input Sort into band: CCCCCC [hexane] + CCCCCCCC[N+](C)(CCCCCCCC)CCCCCCCC.O=S(=O)([N-]S(=O)(=O)C(F)(F)F)C(F)(F)F
# output high

# input Hi, small favor: classify C#CCCCC [1-hexyne] + CCCCCCCC[N+](C)(CCCCCCCC)CCCCCCCC.O=S(=O)([N-]S(=O)(=O)C(F)(F)F)C(F)(F)F by its activity coefficient when you get a moment.
# output low

# input Into which bin does this molecule go? C#CCCCCC [1-heptyne] + CCCCCCCC[N+](C)(CCCCCCCC)CCCCCCCC.O=S(=O)([N-]S(=O)(=O)C(F)(F)F)C(F)(F)F
# output intermediate

# input For the record Cc1ccccc1 [toluene] + CCCCCCCC[N+](C)(CCCCCCCC)CCCCCCCC.O=S(=O)([N-]S(=O)(=O)C(F)(F)F)C(F)(F)F , report the class its activity coefficient corresponds to.
# output low

# input Quick check: band for C=CCCCCCCC [1-nonene] + CCCCCCCC[N+](C)(CCCCCCCC)CCCCCCCC.O=S(=O)([N-]S(=O)(=O)C(F)(F)F)C(F)(F)F
# output high

# input Field: class (activity coefficient) — entry: C=CCCC [1-pentene] + CCCCCCCC[N+](C)(CCCCCCCC)CCCCCCCC.O=S(=O)([N-]S(=O)(=O)C(F)(F)F)C(F)(F)F
# output intermediate

# input Which bin, given its activity coefficient, does C#CCCCCCCCC [1-decyne] + CCCCCCCC[N+](C)(CCCCCCCC)CCCCCCCC.O=S(=O)([N-]S(=O)(=O)C(F)(F)F)C(F)(F)F occupy?
# output high

# input Just checking, what class would you give C#CCCCCCCC [1-nonyne] + CCCCCCCC[N+](C)(CCCCCCCC)CCCCCCCC.O=S(=O)([N-]S(=O)(=O)C(F)(F)F)C(F)(F)F here?
# output high

# input Lab note: sort C1CCCCC1 [cyclohexane] + CCCCCCCC[N+](C)(CCCCCCCC)CCCCCCCC.O=S(=O)([N-]S(=O)(=O)C(F)(F)F)C(F)(F)F into the matching activity coefficient band.
# output intermediate
